Observed IC50 for CYP2C9 (Homo sapiens (Human), UniProt P11712), reported per entry below.
Give just the number in µM; leave the unit off.

-- ask Query (compound): OC(Cn1cnnn1)(c1ccc(F)cc1F)C(F)(F)c1cnc2cc(Cl)ccc2n1 (centres unmarked) [Compound 10] ; field requested: IC50
-- reply 42

-- ask What do you have for OC(Cn1cnnn1)(c1ccc(F)cc1F)C(F)(F)c1ccc2cc(Br)ccc2n1 (centres unmarked) [Compound 9] ?
-- reply 13

----------
biological target: CYP3A4 (Homo sapiens (Human))
Sequence (P08684 whole entry): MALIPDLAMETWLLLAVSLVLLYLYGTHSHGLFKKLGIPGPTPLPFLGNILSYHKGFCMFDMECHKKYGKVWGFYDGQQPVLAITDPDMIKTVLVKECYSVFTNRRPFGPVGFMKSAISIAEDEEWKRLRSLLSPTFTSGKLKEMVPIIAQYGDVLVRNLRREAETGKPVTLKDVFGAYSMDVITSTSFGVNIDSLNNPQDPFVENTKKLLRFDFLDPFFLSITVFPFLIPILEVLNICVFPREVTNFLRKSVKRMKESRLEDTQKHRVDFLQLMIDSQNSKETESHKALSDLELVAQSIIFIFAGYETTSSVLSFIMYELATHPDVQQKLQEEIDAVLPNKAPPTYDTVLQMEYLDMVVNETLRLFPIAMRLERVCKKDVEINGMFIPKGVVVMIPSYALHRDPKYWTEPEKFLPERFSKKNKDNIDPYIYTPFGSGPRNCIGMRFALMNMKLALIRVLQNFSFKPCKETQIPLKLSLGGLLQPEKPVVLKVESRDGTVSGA
Assignment: determine reported IC50 for the given compounds.
Give just the number in µM; leave the unit off.

-- ask Query (compound): OC(Cn1cnnn1)(c1ccc(F)cc1F)C(F)(F)c1ccc2cc(Br)ccc2n1 (centres unmarked) ; field requested: IC50
-- reply 11

-- ask What do you have for OC(Cn1cnnn1)(c1ccc(F)cc1F)C(F)(F)c1cnc2cc(Cl)ccc2n1 (centres unmarked) ?
-- reply 45

----------
test system: C. albicans
Assignment: determine reported MIC for the given compounds.
Give just the number in µg/mL; leave the unit off.

-- ask Query (compound): C[C@@H](c1ncncc1F)[C@](O)(Cn1cncn1)c1ccc(F)cc1F [Voriconazole, reference compound] ; field requested: MIC
-- reply 0.016

-- ask What do you have for OC(Cn1cncn1)(Cn1cncn1)c1ccc(F)cc1F [Fluconazole, reference compound] ?
-- reply 0.5

-- ask What do you have for OC(Cn1cnnn1)(c1ccc(F)cc1F)C(F)(F)c1cnc2cc(Cl)ccc2n1 (stereo not shown) [Compound 10] ?
-- reply 0.125

-- ask What do you have for OC(Cn1cnnn1)(c1ccc(F)cc1F)C(F)(F)c1ccc2cc(Br)ccc2n1 (stereo not shown) [Compound 9] ?
-- reply 0.016
